target: neuraminidase (NA) of recombinant influenza B/Phuket/3073/2013 WT virus (Influenza B virus, UniProt A0A1S5RAG6); details: mean of two independent experiments in duplicate, read-out: Neuraminidase Inhibitors IC50 values
Sequence (A0A1S5RAG6 entry or part of it, added parts left off): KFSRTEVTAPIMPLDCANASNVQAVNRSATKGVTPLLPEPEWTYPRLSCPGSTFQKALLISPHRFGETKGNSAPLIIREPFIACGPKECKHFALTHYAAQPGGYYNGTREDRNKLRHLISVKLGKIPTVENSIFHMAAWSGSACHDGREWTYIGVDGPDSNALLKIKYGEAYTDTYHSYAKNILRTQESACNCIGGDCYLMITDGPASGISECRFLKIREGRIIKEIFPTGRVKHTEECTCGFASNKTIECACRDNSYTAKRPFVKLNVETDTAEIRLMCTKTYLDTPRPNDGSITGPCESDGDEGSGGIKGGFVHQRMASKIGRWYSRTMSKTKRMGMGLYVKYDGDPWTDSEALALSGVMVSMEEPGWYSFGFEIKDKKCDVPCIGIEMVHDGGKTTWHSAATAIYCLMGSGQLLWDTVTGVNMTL
property-name: IC50

Briefly, IC50 measured for CCC(CC)[C@H](NC(C)=O)[C@@H]1[C@H](O)[C@@H](C(=O)O)C[C@H]1N=C(N)N [Peramivir, peramivir] : 0.74 nM
